Target: T1, human CD103 (integrin Alpha-E) / human integrin Beta-7 heterodimer on cells (human, UniProt P38570 19-1179; P26010 20-798)
T1 construct: the assay field tells which cells; also called hCD103/hBeta7; CHO.K1-hCD103/hBeta7
T1 sequence (P38570 19-1179 limits assumed, chain 1 of 2): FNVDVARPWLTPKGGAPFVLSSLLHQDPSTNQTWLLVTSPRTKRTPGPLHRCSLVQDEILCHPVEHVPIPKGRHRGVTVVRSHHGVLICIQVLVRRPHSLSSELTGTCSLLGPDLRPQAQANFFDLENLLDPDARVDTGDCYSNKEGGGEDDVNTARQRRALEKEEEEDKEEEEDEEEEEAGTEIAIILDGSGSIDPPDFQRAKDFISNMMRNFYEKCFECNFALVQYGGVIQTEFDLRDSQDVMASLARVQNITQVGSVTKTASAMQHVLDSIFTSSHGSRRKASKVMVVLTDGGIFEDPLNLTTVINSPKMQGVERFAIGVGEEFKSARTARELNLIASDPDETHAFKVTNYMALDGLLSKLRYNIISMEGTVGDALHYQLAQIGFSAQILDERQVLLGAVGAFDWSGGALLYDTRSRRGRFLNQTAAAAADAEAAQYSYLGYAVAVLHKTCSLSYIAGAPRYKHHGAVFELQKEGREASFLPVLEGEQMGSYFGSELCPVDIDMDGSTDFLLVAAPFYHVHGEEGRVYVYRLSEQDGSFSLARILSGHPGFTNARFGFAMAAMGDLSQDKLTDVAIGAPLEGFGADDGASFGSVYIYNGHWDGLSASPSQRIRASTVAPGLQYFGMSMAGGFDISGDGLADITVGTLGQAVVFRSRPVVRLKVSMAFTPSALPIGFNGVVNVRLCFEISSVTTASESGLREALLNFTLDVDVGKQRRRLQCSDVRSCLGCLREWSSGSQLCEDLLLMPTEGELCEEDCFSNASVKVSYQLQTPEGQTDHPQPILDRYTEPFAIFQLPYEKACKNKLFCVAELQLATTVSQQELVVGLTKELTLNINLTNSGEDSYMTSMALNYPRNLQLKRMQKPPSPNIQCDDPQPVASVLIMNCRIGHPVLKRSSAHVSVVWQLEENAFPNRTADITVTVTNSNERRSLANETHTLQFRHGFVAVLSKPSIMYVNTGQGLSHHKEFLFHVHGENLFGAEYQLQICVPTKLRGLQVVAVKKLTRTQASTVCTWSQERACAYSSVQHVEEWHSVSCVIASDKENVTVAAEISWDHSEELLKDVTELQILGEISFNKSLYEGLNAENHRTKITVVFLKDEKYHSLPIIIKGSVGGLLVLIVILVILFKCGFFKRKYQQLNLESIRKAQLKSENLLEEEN
T1 sequence (P26010 20-798 limits assumed, chain 2 of 2): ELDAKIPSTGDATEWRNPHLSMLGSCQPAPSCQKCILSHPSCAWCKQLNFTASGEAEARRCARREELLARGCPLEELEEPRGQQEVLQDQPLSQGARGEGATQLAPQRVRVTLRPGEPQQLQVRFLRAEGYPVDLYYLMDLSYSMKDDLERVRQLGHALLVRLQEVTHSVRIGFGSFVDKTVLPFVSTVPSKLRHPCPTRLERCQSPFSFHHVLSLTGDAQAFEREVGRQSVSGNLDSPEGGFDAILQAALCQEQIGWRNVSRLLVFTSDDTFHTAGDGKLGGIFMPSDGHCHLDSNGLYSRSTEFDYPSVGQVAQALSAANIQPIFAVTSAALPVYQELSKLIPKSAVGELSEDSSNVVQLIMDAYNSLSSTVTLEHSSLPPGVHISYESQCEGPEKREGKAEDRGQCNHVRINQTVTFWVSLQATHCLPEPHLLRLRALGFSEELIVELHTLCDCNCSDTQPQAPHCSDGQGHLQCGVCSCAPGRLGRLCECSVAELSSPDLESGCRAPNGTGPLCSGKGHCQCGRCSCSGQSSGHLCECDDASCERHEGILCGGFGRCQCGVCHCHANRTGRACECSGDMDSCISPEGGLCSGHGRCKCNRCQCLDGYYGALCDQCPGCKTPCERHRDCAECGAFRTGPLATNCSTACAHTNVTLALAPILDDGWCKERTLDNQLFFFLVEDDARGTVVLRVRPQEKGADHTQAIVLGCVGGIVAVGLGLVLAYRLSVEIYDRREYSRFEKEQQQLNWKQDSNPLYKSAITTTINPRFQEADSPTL
Assay: flow cytometry competition on CD103+CD8+ T cells; pre-incubation with unlabeled 05A; table n=1
assay-readout: % binding of the fluorescently labeled mAb (IgG pre-incubation = 100) (%)
A number alone suffices; assume %.

binder	numeric-value
hCD103.05A (antibody, mouse IgG1, V domains shown, Also tested labelled with AF647, conjugated with Df and labelled with 89Zr; these are written under this molecule; also called clone 05A; hCD103.05 mAb) VH: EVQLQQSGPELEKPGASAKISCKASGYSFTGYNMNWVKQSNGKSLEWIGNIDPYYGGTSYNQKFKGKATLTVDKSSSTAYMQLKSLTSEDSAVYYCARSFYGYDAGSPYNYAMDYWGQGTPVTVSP VL: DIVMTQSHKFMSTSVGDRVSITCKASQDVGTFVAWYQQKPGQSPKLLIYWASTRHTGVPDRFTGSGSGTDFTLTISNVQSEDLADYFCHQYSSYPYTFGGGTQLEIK	13.1
hCD103.06A (antibody, mouse IgG1, V domains shown, also called clone 06A; hCD103.06 mAb) VH: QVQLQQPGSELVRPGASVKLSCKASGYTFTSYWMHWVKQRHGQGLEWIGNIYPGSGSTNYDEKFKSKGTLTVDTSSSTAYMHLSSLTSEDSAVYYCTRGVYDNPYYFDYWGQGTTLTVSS VL: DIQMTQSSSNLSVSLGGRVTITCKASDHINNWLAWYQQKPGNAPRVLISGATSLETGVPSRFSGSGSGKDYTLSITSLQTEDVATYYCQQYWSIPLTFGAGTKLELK	101
hCD103.01A (antibody, V domains shown, Also tested labelled with AF647, conjugated with Df and labelled with 89Zr; these are written under this molecule; also called clone 01A; hCD103.01 mAb) VH: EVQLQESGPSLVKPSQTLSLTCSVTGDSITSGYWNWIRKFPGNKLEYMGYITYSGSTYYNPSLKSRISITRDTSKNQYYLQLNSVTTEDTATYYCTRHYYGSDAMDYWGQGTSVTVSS VL: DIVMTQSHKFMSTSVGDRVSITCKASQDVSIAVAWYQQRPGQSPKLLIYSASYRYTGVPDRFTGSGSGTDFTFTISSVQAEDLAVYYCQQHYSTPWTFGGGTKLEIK	71.8

Read the next record carefully.
Query: I would be grateful if you could share the reported % binding of the fluorescently labeled mAb (IgG pre-incubation = 100) for hCD103.07A (antibody, mouse IgG1, V domains shown, also called clone 07A) VH: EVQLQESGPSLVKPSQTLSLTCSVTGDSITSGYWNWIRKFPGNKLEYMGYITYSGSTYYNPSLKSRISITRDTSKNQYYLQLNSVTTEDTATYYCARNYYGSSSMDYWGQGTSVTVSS VL: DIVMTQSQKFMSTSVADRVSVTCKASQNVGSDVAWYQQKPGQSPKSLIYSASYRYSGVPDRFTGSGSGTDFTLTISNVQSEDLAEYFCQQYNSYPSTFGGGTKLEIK .
Response: 7.9
